# protocolDetails: Inhibition of killing activity of CD8+ specific mouse CTL-OE4 cells
# Type: functional, cell-based
fulfilled if IC50 is below 10 µM. not fulfilled if not; exact matches included in not fulfilled.

In [3]: df
Out[3]:
                                    compound  categorylabel
 0  C=C1CC[C@@H]2[C@H]1[C@H]1OC(=O)[C@@H](C)[C@@H]1C[C@H]1O[C@@]21C  not fulfilled
 1  C=C1CC[C@@]23O[C@]2(C)CC[C@@H]2[C@H](OC(=O)[C@H]2C)[C@@H]13  not fulfilled
 2  C=C1CCC2=C(C)CC[C@H]3C(=C)C(=O)O[C@@H]3[C@@H]12  not fulfilled
 3  C=C1CC[C@]23O[C@@]2(C)CC[C@H]2C(=C)C(=O)O[C@@H]2[C@@H]13      fulfilled
 4  C=C1CC[C@H]2C(=C)CC[C@@H]3[C@H](OC(=O)[C@H]3C)[C@@H]12  not fulfilled
 5  C=C1CC[C@H]2C(=C)CCC3=C(C)C(=O)O[C@@H]3[C@@H]12  not fulfilled
 6  C=C1CC[C@H]2C(=C)CC[C@H]3C(=C)C(=O)O[C@@H]3[C@@H]12 [DEHYDROCOSTUSLACTONE]  not fulfilled
 7  C=C1CC[C@]23O[C@@]2(C)CCC2=C(C)C(=O)O[C@@H]2[C@@H]13  not fulfilled
 8  C=C1CC[C@H]2C(C)=CCC3=C(C)C(=O)O[C@@H]3[C@@H]12  not fulfilled
 9  C=C1CC[C@@]23O[C@]2(C)CC[C@H]2C(=C)C(=O)O[C@@H]2[C@@H]13      fulfilled
10  C=C1CC[C@@H]2[C@H](OC(=O)[C@H]2C)[C@H]2C(C)=CC[C@@H]12  not fulfilled

###

# protocolDetails: Inhibition of killing activity of CD8+ specific mouse CTL-OE4 cells
# Assay type: functional, cell-based
Measured IC50 accompanies every entry in the list below.
assayEndpoint: IC50 (µM)

>>> print(df.to_string())
                                   molecule  observedmeasurement
0  C=C1CC[C@@H]2[C@H]1[C@H]1OC(=O)C(=C)[C@@H]1C[C@H]1O[C@@]21C                    8
1  C=C1CC[C@]23O[C@@]2(C)CC[C@@H]2[C@H](OC(=O)[C@H]2C)[C@@H]13                  597
2  C=C1C(=O)O[C@@H]2[C@H]3C(C)=CC[C@H]3C(=C)CC[C@@H]12 [ISODEHYDROCOSTUS LACTONE]                   16
3  C=C1CC[C@H]2C(C)=CC[C@H]3C(=C)C(=O)O[C@@H]3[C@@H]12                   11
